- measuredTarget: Human CB1 (Homo sapiens (Human), UniProt P21554)
- Sequence (P21554 whole entry): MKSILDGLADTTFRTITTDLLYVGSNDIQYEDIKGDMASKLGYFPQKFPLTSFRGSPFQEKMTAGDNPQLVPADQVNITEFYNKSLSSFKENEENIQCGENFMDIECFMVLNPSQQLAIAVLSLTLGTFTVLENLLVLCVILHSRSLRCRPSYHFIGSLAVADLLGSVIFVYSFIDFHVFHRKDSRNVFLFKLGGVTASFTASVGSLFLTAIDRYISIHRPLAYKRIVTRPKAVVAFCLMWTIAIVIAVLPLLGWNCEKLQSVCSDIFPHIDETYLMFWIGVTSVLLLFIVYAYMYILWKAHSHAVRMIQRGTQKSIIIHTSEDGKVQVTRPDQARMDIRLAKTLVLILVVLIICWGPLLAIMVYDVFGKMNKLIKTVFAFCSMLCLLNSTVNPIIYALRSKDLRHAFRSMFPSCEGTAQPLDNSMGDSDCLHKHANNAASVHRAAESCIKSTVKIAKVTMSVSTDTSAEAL
- assayNotes: Calcium mobilization assay (antagonist mode vs CP55,940)
- Type: cell-based
- reportedConditions: CHO-RD-HGA16 cells stably expressing human CB1; against EC50 concentration of CP55,940; mean ± SEM, at least three experiments
pIC50: −log10 of the molar value.
measurementLabel: pIC50

In [3]: df
Out[3]:
                                givensmiles  assayvalue
0    O=c1c(NCCc2ccccn2)c(Nc2ccc(Cl)cc2)c1=O        6.02
1   O=c1c(NCCCc2ccccc2)c(Nc2ccc(Cl)cc2)c1=O        5.98
2  Cc1ccc(CCNc2c(Nc3ccc(Cl)cc3)c(=O)c2=O)cc1        6.79

I. Cc1cccc(CCNc2c(Nc3ccc(Cl)cc3)c(=O)c2=O)c1
II. COc1ccccc1CCNc1c(Nc2ccc(Cl)cc2)c(=O)c1=O
[in] From the recorded data, which exceeds the other in pIC50: I or II ? Your choice should be expressed through its label.
[out] I

---

# microsomal CLint per entry
- assayNotes: Metabolic stability in rat liver microsomes
- Assay type: in vitro ADME
- reportedConditions: pH 7.4, 0.5 mg/mL protein, NADPH, 37° C., read-out: Rat Liver microsome Clearance
- Experimental: Metabolic stability assessment: Compounds were incubated with rat liver microsomes at 37° C. for a total of 45 minutes. The reaction was performed at pH 7.4 in 100 mM potassium phosphate buffer containing 0.5 mg/mL of rat liver microsomal protein. Phase I metabolism was assessed by adding NADPH to a final concentration of 1 mM and collecting samples at time points 0, 5, 15, 30 and 45 minutes. […]
Give the value, in units of µL/min/mg, as a plain number.

>>> print(df.to_string())
                                givensmiles  unitsymbol  assayvalue
0  O=c1c(NCCc2cccc(Cl)c2)c(Nc2ccc(Cl)cc2)c1=O   µL/min/mg        34.7

# context switch: different compound, same microsomal CLint
[in] State the recorded microsomal CLint for this entry: O=c1c(Nc2ccc(Cl)cc2)c(Nc2cccc(-c3ccc(F)cc3)c2)c1=O
[out] 59.6

---

# half-life per entry
- assayNotes: Metabolic stability in rat liver microsomes
- Type: in vitro ADME
- reportedConditions: pH 7.4, 0.5 mg/mL protein, NADPH, 37° C., read-out: Rat Liver microsome T1/2
Give the value, in units of min, as a plain number.

                                   compound  unitsymbol  assayvalue
0  O=c1c(Nc2ccc(Cl)cc2)c(Nc2cccc(-c3ccc(F)cc3)c2)c1=O [Compound 33]         min        23.7

# context switch: different compound, same half-life
[in] State the recorded half-life for this entry: O=c1c(NCCc2cccc(Cl)c2)c(Nc2ccc(Cl)cc2)c1=O [Compound 7]
[out] 40

---

- measuredTarget: Human CB1 (Homo sapiens (Human))
- assayNotes: Calcium mobilization assay (antagonist mode vs CP55,940)
- Assay type: cell-based
- reportedConditions: CHO-RD-HGA16 cells stably expressing human CB1; against EC50 concentration of CP55,940; mean ± SEM, at least three experiments
measurementLabel: IC50 (µM)

In [3]: df
Out[3]:
                                givensmiles                    measuredtarget  assayvalue
0  COc1ccc(CCNc2c(Nc3ccc(Cl)cc3)c(=O)c2=O)cc1  Human CB1 (Homo sapiens (Human))       0.734
1  O=c1c(NCCc2ccc(Cl)cc2Cl)c(Nc2ccc(Cl)cc2)c1=O  Human CB1 (Homo sapiens (Human))        1.14
2  COc1cccc(CCNc2c(Nc3ccc(Cl)cc3)c(=O)c2=O)c1  Human CB1 (Homo sapiens (Human))        0.35
3  O=c1c(NCCc2ccc(Cl)c(Cl)c2)c(Nc2ccc(Cl)cc2)c1=O  Human CB1 (Homo sapiens (Human))       0.877
4  O=c1c(Nc2ccc(Cl)cc2)c(Nc2cccc(-c3ccc(F)cc3)c2)c1=O  Human CB1 (Homo sapiens (Human))       0.575
5  O=c1c(Nc2ccc(Cl)cc2)c(Nc2ccc(-c3ccccc3)cc2)c1=O  Human CB1 (Homo sapiens (Human))        1.48
6  O=c1c(NCCc2ccc(F)cc2)c(Nc2ccc(Cl)cc2)c1=O  Human CB1 (Homo sapiens (Human))       0.337
7    O=c1c(NCCc2ccccc2)c(Nc2ccc(Cl)cc2)c1=O  Human CB1 (Homo sapiens (Human))        0.21

1. N#Cc1ccc(Nc2c(NCCc3cccc(Cl)c3)c(=O)c2=O)cc1
2. O=c1c(NCCc2cccc(F)c2)c(Nc2ccc(Cl)cc2)c1=O
[in] // compare: 1 vs 2 , metric IC50, want the smaller Your choice should be expressed through its label.
[out] 2
